Hey, just so you know, these numbers are from PubChem BioAssay (NCI).

Tested on: MALME-3M melanoma
Assay: NCI-60 one-dose screen, 48 h (100 = growth as untreated, 0 = no growth, -100 = all killed)
Conditions: 10 µM unless noted
The panel holds about 83,000 compounds, 20% with a hit somewhere; the sample as a whole holds those more often.
OBSERVATION TYPE: growth (%)
Write the value in % as a bare number.

The examples below pair each entry with its known result.
| MOLECULE | UNIT TAG | NUMERIC RESULT |
| --- | --- | --- |
| O=C(O)C1(Br)CC12c1ccccc1-c1ccccc12 (centres undefined) | % | 100 |
| NC(=O)C(Cl)Cl | % | 96.6 |

Moving on to the next molecule.
INPUT: Tell me the measured growth of CC(=O)OC1CCC2(C)C(=CCC3C4CC(CN5CC5)C(=O)C4(C)CCC32)C1 (centres undefined) , please.
OUTPUT: 103
